- tested_target: SMARCA2-HiBiT HeLa cells (protein which is expressed from the SMARCA2 gene) (Homo sapiens, UniProt P51531)
- Construct: protein which is expressed from the SMARCA2 and SMARCA4 genes; host or cells: HeLa (SMARCA2-HiBiT engineered line)
- Sequence (P51531 whole entry): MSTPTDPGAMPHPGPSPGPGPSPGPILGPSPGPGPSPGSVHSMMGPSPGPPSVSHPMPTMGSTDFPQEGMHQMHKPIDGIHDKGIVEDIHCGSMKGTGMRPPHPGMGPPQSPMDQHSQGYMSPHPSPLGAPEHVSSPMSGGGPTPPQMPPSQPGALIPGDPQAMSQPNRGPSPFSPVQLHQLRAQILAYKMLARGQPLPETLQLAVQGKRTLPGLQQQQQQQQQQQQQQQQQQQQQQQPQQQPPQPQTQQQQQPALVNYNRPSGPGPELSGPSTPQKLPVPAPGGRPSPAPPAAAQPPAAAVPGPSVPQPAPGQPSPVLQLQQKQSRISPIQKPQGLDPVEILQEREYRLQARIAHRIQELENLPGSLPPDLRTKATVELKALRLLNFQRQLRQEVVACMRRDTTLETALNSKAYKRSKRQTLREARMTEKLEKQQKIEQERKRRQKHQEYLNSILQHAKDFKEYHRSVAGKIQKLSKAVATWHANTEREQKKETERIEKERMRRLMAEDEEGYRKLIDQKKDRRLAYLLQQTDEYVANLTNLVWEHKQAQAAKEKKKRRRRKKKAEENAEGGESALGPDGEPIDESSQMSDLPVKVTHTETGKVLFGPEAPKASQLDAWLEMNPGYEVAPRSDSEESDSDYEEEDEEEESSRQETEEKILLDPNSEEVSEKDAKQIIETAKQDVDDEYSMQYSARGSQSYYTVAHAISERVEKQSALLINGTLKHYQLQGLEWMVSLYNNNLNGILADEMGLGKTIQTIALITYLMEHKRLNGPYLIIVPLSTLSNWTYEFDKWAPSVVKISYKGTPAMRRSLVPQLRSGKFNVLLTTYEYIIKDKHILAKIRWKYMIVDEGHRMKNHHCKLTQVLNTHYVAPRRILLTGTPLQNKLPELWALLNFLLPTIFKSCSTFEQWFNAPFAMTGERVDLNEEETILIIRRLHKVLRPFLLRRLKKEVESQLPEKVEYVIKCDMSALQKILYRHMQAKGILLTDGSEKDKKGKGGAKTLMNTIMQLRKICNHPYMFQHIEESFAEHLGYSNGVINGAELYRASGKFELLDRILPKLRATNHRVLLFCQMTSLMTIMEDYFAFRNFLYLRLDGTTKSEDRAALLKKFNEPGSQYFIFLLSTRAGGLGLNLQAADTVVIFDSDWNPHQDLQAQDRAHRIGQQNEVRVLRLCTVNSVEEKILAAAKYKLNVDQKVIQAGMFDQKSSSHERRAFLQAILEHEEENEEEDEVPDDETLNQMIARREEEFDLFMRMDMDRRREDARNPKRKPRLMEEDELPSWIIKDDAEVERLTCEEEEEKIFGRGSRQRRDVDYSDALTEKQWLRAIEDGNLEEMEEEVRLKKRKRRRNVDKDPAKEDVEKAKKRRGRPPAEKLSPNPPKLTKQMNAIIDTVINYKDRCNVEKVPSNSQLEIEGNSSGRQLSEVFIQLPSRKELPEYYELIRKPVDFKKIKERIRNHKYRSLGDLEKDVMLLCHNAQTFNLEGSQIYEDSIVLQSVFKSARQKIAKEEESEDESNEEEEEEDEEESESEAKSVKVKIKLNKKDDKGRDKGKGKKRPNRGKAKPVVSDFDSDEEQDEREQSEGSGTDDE
- assay_notes: SMARCA2 degradation assay (HiBiT-fusion HeLa cell line, 24 h, luminescence)
- Type: cell-based
- run_conditions: @ 1 μM
readout_kind: SMARCA2 % Degradation @ 1 μM

The examples below pair each entry with its known result.
*Q* Which SMARCA2 % Degradation @ 1 μM value is on record for "C[C@@H]1CCN(c2cc(-c3ccccc3O)nnc2N)CCN1c1ccnc(C#C[C@@H](C)O)n1" ?
*A* +++ (+++=>70%)

*Q* Note, next up: "C[C@@H]1CCN(c2cc(-c3ccccc3O)nnc2N)CCN1c1ccnc(C#CCN2CC[C@H]2CF)n1"
*A* ++ (++=30-70%)

*Q* Note, next up: "C[C@@H]1CCN(c2cc(-c3ccccc3O)nnc2N)CCN1c1ccnc(C#CCn2cccn2)n1"
*A* ++ (++=30-70%)

*Q* Note, next up: "C[C@@H]1CCN(c2cc(-c3ccccc3O)nnc2N)CCN1c1ccnc(C#CC2CN(C)C2)n1"
*A* +++ (+++=>70%)

*Q* Note, next up: "C[C@@H]1CCN(c2cc(-c3ccccc3O)nnc2N)CCN1c1ccnc(C=CCN(C)CC(F)F)n1"
*A* ++ (++=30-70%)

***
*Q* Which SMARCA2 % Degradation @ 1 μM value is on record for "Cc1c(C(=O)NC/C=C/c2nccc(N3CCCN(c4cc(-c5ccccc5O)nnc4N)CC3)n2)nn(C)c1C" ?
*A* +++ (+++=>70%)

*Q* Note, next up: "Cc1oncc1C(=O)NCC#Cc1nccc(N2CCN(c3cc(-c4ccccc4O)nnc3N)CC2)n1"
*A* ++ (++=30-70%)

----------
This listing pairs compounds with measured DC50.
- tested_target: SMARCA2-HiBiT HeLa cells (protein which is expressed from the SMARCA2 gene) (Homo sapiens)
- Construct: protein which is expressed from the SMARCA2 and SMARCA4 genes; host or cells: HeLa (SMARCA2-HiBiT engineered line)
- assay_notes: SMARCA2 degradation assay (HiBiT-fusion HeLa cell line, 24 h, luminescence)
- Assay type: cell-based

*Q* Which DC50 value is on record for "C[C@@H]1CCN(c2cc(-c3ccccc3O)nnc2N)CCN1c1ccnc(C#CCN2CC3CC(C2)O3)n1" ?
*A* 50 to 500 nM

*Q* Note, next up: "Nc1nnc(-c2ccccc2O)cc1N1CC2CCC(C1)N2c1ccnc(C#CC2(NC(=O)c3cc4ncccn4n3)CC2)n1"
*A* 50 to 500 nM

*Q* Note, next up: "Nc1nnc(-c2ccccc2O)cc1N1CCN(c2ccnc(C#CCNC(=O)c3cnn4cccc(F)c34)n2)CC1"
*A* 50 to 500 nM

*Q* Note, next up: "Nc1nnc(-c2ccccc2O)cc1N1CC2CCC(C1)N2c1ccnc(C#CCn2cccn2)n1"
*A* 50 to 500 nM

*Q* Note, next up: "Nc1nnc(-c2ccccc2O)cc1N1CC2CCC(C1)N2c1ccnc(C#CCNC(=O)c2cccnc2)n1"
*A* 50 to 500 nM

*Q* Note, next up: "C[C@H]1CN(c2ccnc(C#CCNC(=O)c3cc4ncccn4n3)n2)C[C@H](C)N1c1cc(-c2ccccc2O)nnc1N"
*A* 500 to 5000 nM

*Q* Note, next up: "CC(C)(C)OC(=O)N1CCN(CC#Cc2nccc(N3CCCN(c4cc(-c5ccccc5O)nnc4N)CC3)n2)CC1"
*A* 50 to 500 nM

*Q* Note, next up: "C[C@@H]1CCN(c2cc(-c3ccccc3O)nnc2N)CCN1c1ccnc(C#CCN2CCOCC2)c1"
*A* 50 to 500 nM

***
*Q* Which DC50 value is on record for "Nc1nnc(-c2ccccc2O)cc1N1C2CCC1CN(c1ccnc(C#CCn3ccnc3)n1)C2" ?
*A* 50 to 500 nM

*Q* Note, next up: "C[C@@H]1CCN(c2cc(-c3ccccc3O)nnc2N)CCN1c1nc(C#CCN2CC3CC2C3)ncc1F"
*A* < 50 nM

*Q* Note, next up: "C[C@@H]1CCN(c2cc(-c3ccccc3O)nnc2N)CCN1c1cc(C#CCn2ccnc2)ncc1Cl"
*A* 50 to 500 nM

*Q* Note, next up: "C[C@@H]1CCN(c2cc(-c3ccccc3O)nnc2N)CCN1c1ccnc(C#CCN2C[C@@H]3C[C@H]2CO3)n1"
*A* 50 to 500 nM

*Q* Note, next up: "Nc1nnc(-c2cc(F)ccc2O)cc1N1CCCN(c2ccnc(C#CCNC(=O)c3cc4ncccn4n3)n2)CC1"
*A* 500 to 5000 nM

*Q* Note, next up: "CC1(C)COCCN1CC#Cc1nccc(N2CCCN(c3cc(-c4ccccc4O)nnc3N)CC2)n1"
*A* 50 to 500 nM
